- experimentNotes: Quantitative High-Throughput drug screen in 47 multiple myeloma cell lines against the NCATS MIPE library collection: INA6_PLB cell viability assay (AID 1918965; also: potency is read from the fitted curve at half-maximal effect; nearly all actives have a fitted effect of over 55% in size)
- assaySetup: INA6 myeloma viability, CellTiter-Glo ATP luminescence, 48 h; series mostly up to 45.8 µM
Results filed as inconclusive are left out. Calls of active or inactive are those of the source. Calls follow the shape of the dose curve; as a rule, active = well fitted cell-killing curve with a large enough effect; inconclusive = small, poorly fitted or top-dose-only effect, or effect the other way; inactive = no such curve, though single readings can be large or run the other way.
observationType: Potency

compound	observedValue
CN(C)CC=CC(=O)Nc1cc2c(Nc3ccc(F)c(Cl)c3)ncnc2cc1O[C@H]1CCOC1	2.09 µM (active)
COc1cc2c(NC3CCN(C(C)C)CC3)nc(C3CCCCC3)nc2cc1OCCCN1CCCC1	3.72 µM (active)

The recorded Potency for entry "COc1cc(C(=O)NS(=O)(=O)c2ccccc2C)ccc1Cc1cn(C)c2ccc(NC(=O)OC3CCCC3)cc12" equals 10.5 µM (active)

The recorded Potency for entry "Cn1c(=O)n(-c2ccc(C(C)(C)C#N)cc2)c2c3cc(-c4cnc5ccccc5c4)ccc3ncc21" equals 0.0166 µM (active)

---

Reported max response is given for each of the following molecules.
- Test system: KB-3-1
- experimentNotes: Cytotoxic Profiling of Annotated Libraries Using Quantitative High-Throughput Screening (AID 1296008); also: % is scaled to controls: 0 for no effect and ±100 for the full control effect; nearly all actives have a fitted effect of over 60% in size
- assaySetup: Five cell lines viability, CellTiter-Glo ATP luminescence, 48-72 h; stronger effect = lower value
Inconclusive results are not listed.
Field format: number, assumed %, no unit text.

Below: 5 molecules and their reported max response.
molecule	max response [%]
C1Cc2[nH]nc(-c3nn[nH]n3)c2C1	5.58
CCOc1ccccc1OCCNC(C)Cc1ccc(OC)c(S(N)(=O)=O)c1 (stereo not given)	7.71
CCN1CCN(Cc2ccc(-c3cc4c(N[C@H](C)c5ccccc5)ncnc4[nH]3)cc2)CC1	-20
CCCNC(=O)Nc1ccc(Oc2ncnc3cc(OC)c(OC)cc23)cc1Cl	4.92
CCCn1c(=O)c2[nH]c(-c3cnn(Cc4cccc(C(F)(F)F)c4)c3)nc2n(CC)c1=O	0.919

The recorded max response for entry CN(C1CCc2c(c3ccccc3n2CC(=O)O)C1)S(=O)(=O)c1ccc(F)cc1 (stereo not given) equals 7.37

The recorded max response for entry "CC=CC1=C(C(=O)O)N2C(=O)[C@H](NC(=O)[C@H](N)c3ccc(O)cc3)[C@@H]2SC1" equals 1.31

The recorded max response for entry "O=C(O)CCCc1c[nH]c2ccccc12" equals 0.51

The recorded max response for entry "CNC(=O)c1ccc(N2C(=S)N(c3cnc(C#N)c(C(F)(F)F)c3)C(=O)C23CCC3)cc1F" equals -8.3

The recorded max response for entry C[C@]12CC[C@H](O)CC1=CCC1C2CC[C@]2(C)C(n3cnc4ccccc43)=CCC12 (stereo not given in full) equals 0.714

---

- experimentNotes: Cytotoxicity counterscreen for NFkB agonists and antagonists (AID 624476);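 also: cells exposed to compound for 48 hours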
- assaySetup: NFkB reporter cell line viability counterscreen; series mostly up to 46.1 µM
Results filed as inconclusive are left out. Calls of active or inactive are those of the source. The call rests on the fitted dose curve; in most records, active means well fitted curve in the direction sought with a large enough effect; inconclusive means small, poorly fitted or top-dose-only effect, or another doubt; inactive means no such curve, though single readings can be large or run the other way.
Thanks in advance; please answer with one of these: active, inactive

Worked cases, answers included:
compound	classification
CCN1CCN(CC(=O)Nc2ccc(-c3cccc4c(=O)cc(N5CCOCC5)oc34)c3sc4ccccc4c23)CC1	active
C[C@]1(CO)CN(c2cc(C(=O)Nc3ccc4c(c3)-c3c(c(C(N)=O)nn3-c3ccc(F)cc3)CC4)c(Cl)cn2)C[C@@]1(C)CO	inactive
Cc1[nH]nc2ccc(-c3cncc(OC[C@@H](N)Cc4ccccc4)c3)cc12	active
Nc1ccccc1NC(=O)c1ccc(CNC(=O)OCc2cccnc2)cc1	inactive
NC(=O)c1c(OCc2c(F)cc(Br)cc2F)nsc1NC(=O)NCCCCN1CCCC1	inactive

[ask] Just curious, what result did "CC1=C(CO)C(=O)O[C@@H]([C@@H](C)[C@H]2CC[C@H]3[C@@H]4C[C@H]5O[C@]56[C@@H](O)C=CC(=O)[C@]6(C)[C@@H]4CC[C@]23C)C1" get here?
[reply] active

[ask] Just curious, what result did CC(NCc1ccc2c(c1)nc(NC(=O)c1ccc(-c3cn[nH]c3)s1)n2CC(C)(C)O)C(C)(C)C (centres undefined) get here?
[reply] active

[ask] Just curious, what result did "Nc1cc(C(F)(F)F)c(-c2cc(N3CCOCC3)nc(N3CCOCC3)n2)cn1" get here?
[reply] active

[ask] Just curious, what result did COc1ccc(CC2SC(=O)NC2=O)cc1C(=O)NCc1ccc(C(F)(F)F)cc1 (centres undefined) get here?
[reply] inactive

[ask] Just curious, what result did "CCCCN1CCC(CNC(=O)c2c3n(c4ccccc24)CCCO3)CC1" get here?
[reply] inactive

[ask] Just curious, what result did "CC(C)c1ccccc1Cc1cc(C(=O)Nc2ccc(S(=O)(=O)c3ccccc3C(C)(C)C)cc2)c(O)c(O)c1O" get here?
[reply] active

[ask] Just curious, what result did "C#Cc1cccc(Nc2ncnc3cc(OC)c(OCCCCCCC(=O)NO)cc23)c1" get here?
[reply] active

[ask] Just curious, what result did "COc1cccc2nc(-c3cccs3)nc(NN3C(=O)C=C(C)C3=O)c12" get here?
[reply] inactive

[ask] Just curious, what result did "CC(=O)OCCN1C(=O)c2c(C)nc3ccc(S(=O)(=O)N4CCOCC4)cc3c2C1=O" get here?
[reply] inactive

[ask] Just curious, what result did "COc1cc2c(Oc3ccc(NC(=O)C4(C(=O)Nc5ccc(F)cc5)CC4)cc3F)ccnc2cc1OCCCN1CCOCC1" get here?
[reply] active

[ask] Just curious, what result did "COc1ccc(C=Cc2cc(OC)c(OC)c(OC)c2)cc1O" get here?
[reply] inactive

---

- experimentNotes: qHTS of pediatric cancer cell lines to identify multiple opportunities for drug repurposing: Primary screen for TC32 cells (AID 1347089); also: nearly all actives have a fitted effect of over 60% in size
- assaySetup: TC32 Ewing sarcoma viability, CellTiter-Glo luminescence, 48 h; series mostly up to 45.8 µM
Results filed as inconclusive are left out. The source made the active and inactive calls. Calls follow the shape of the dose curve; as a rule, active = well fitted cell-killing curve with a large enough effect; inconclusive = small, poorly fitted or top-dose-only effect; inactive = flat fitted curve, though single readings scatter.
Thanks in advance; please answer with one of these: true (1) (active), false (0) (inactive)

molecule	classification
Cc1c(CN2CCN(S(C)(=O)=O)CC2)sc2c(N3CCOCC3)nc(-c3cnc(N)nc3)nc12	true (1)
CC(C)c1cc(C(=O)N2Cc3ccc(CN4CCN(C)CC4)cc3C2)c(O)cc1O	true (1)
Cc1cc(C(=O)N2CCN(c3cccc(Cl)c3)CC2)n(-c2ccccc2)n1	true (1)

[ask] Just curious, what result did "Clc1cccc(-c2nnnn2Cc2cccnc2)c1Cl" get here?
[reply] false (0)

[ask] Just curious, what result did "CN1CCN(c2cc(C(=O)Nc3ccc4c(c3)-c3c(c(C(N)=O)nn3-c3ccc(F)cc3)CC4)c(Cl)cn2)CC1" get here?
[reply] false (0)

[ask] Just curious, what result did "O=C(O)[C@H](Cc1c[nH]c2ccccc12)N1C(=O)c2ccccc2C1=O" get here?
[reply] false (0)

[ask] Just curious, what result did CC1COC2(CCN(c3nc(=O)c4cc(C(F)(F)F)cc([N+](=O)[O-])c4s3)CC2)O1 (centres undefined) get here?
[reply] false (0)

[ask] Just curious, what result did "Cc1[nH]nc2ccc(-c3cncc(OC[C@@H](N)Cc4ccccc4)c3)cc12" get here?
[reply] true (1)

[ask] Just curious, what result did "O=c1[nH]nc(Sc2ncc([N+](=O)[O-])s2)n1-c1ccc2c(c1)OCCO2" get here?
[reply] false (0)

---

- experimentNotes: qHTS Screen of the MIPE 4.0 Collection Against Ewings Sarcoma (EW8) (AID 1259255); also: nearly all actives have a fitted effect of over 35% in size; also: potency is read from the fitted curve at half-maximal effect;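 as to viability: 100% = DMSO-treated cells and 0% = medium-only wells without cells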
- assaySetup: EW8 Ewing sarcoma viability, CellTiter-Glo, 48 h; series mostly up to 45.8 µM
Results filed as inconclusive are left out. The source made the active and inactive calls. Calls follow the shape of the dose curve; as a rule, active = well fitted inhibition curve with a large enough effect; inconclusive = small, poorly fitted or top-dose-only effect; inactive = no such curve, though single readings can be large or run the other way.
observationType: Potency

compound	Potency
CN1CC[C@@H](c2c(O)cc(O)c3c(=O)cc(-c4ccccc4Cl)oc23)[C@@H](O)C1	0.118 µM (active)
C=C1C(=CC=C2CCCC3(C)[C@@H]([C@H](C)C=CC=CC(O)(CC)CC)CC[C@@H]23)C[C@@H](O)C[C@@H]1O (some centres undefined)	23.5 µM (active)
COc1cc(C(=O)NS(=O)(=O)c2ccccc2C)ccc1Cc1cn(C)c2ccc(NC(=O)OC3CCCC3)cc12	16.6 µM (active)
O=C(O)Cn1nnc(-c2cc(N3CCC(Oc4cc(F)ccc4Br)CC3)no2)n1	inactive
CN(c1ncccc1CNc1nc(Nc2ccc3c(c2)CC(=O)N3)ncc1C(F)(F)F)S(C)(=O)=O	8.33 µM (active)
CN1c2cc(O)c(N=NC(N)=O)cc2CC1S(=O)(=O)O (centres undefined)	inactive
COc1ccc2c(OCc3nnc4ccc(-c5ccccc5)nn34)ccnc2c1	inactive
CC(C)(C)c1cnc(CSc2cnc(NC(=O)C3CCNCC3)s2)o1	0.148 µM (active)

The recorded Potency for entry Nc1ncnc2c1c(-c1cccc(OCc3ccccc3)c1)cn2C1CC(CN2CCCC2)C1 (centres undefined) equals 16.6 µM (active)

The recorded Potency for entry "C[C@]1(CO)CN(c2cc(C(=O)Nc3ccc4c(c3)-c3c(c(C(N)=O)nn3-c3ccc(F)cc3)CC4)c(Cl)cn2)C[C@@]1(C)CO" equals 16.6 µM (active)

The measurements presented in this section are drawn from PubChem BioAssay (NCATS).
